Assay Info: Inhibition of Bifidobacterium longum subsp. infantis ATCC 15697 sialidase 2 (BiNanH2) using Neu5Acalpha2-3GalbetapNP as substrate after 30 mins by colorimetric assay
Measure: IC50

[[record]]
molecule_smiles = "CC(=O)N[C@H]1[C@H]([C@H](O)[C@H](O)Cn2cc(C[C@H](NC(=O)[C@@H](N)CCC(=O)O)C(=O)N[C@@H](CCCCN)C(=O)N[C@@H](CCC(=O)O)C(N)=O)nn2)OC(C(=O)O)=C[C@@H]1O"
measure = "IC50"
result_value = "> 1 mM"


get_value(item= `CC(=O)N[C@H]1[C@H]([C@H](O)[C@H](O)CN=[N+]=[N-])OC(C(=O)O)=C[C@@H]1O` , readout=IC50) returns 0.1 to 1 mM

The compound listed as `CC(=O)N[C@H]1[C@H]([C@H](O)[C@H](O)Cn2cc(C[C@H](N)C(=O)O)nn2)OC(C(=O)O)=C[C@@H]1O` shows IC50 equal to > 1 mM
